The entries below pair molecules with pIC50 values for Cytochrome P450 2C9 (Homo sapiens, UniProt P11712), as found in several publications.
Scale explanation: pIC50 corresponds to minus log10 of a concentration expressed in moles per litre.

Recall the recorded pIC50 for `COc1cccc(CN(CCN(C)C)C(=O)Nc2ccc(-c3cn[nH]c3)cc2)c1` with Cytochrome P450 2C9 (Homo sapiens, UniProt P11712) and state it.
4.52

Recall the recorded pIC50 for `O=c1[nH]c2cc(/C=C3\c4ccccc4COc4cc(F)ccc43)ccc2n1[C@@H]1C[C@@H]2COCCN2C1` with Cytochrome P450 2C9 (Homo sapiens, UniProt P11712) and state it.
5.80

Recall the recorded pIC50 for `C[C@H](Oc1cc2cc(F)ccc2nc1N)c1[nH]c(=O)ccc1-n1cccn1` with Cytochrome P450 2C9 (Homo sapiens, UniProt P11712) and state it.
4.60

Recall the recorded pIC50 for `NC(=O)COc1ccc2c(c1)S(=O)(=O)NC(c1c(O)c3cc(F)ccc3n(CCC3CC3)c1=O)=N2` with Cytochrome P450 2C9 (Homo sapiens, UniProt P11712) and state it.
5.27

Recall the recorded pIC50 for `CCCC[C@H](NC(=O)Cc1c[nH]c2ccc(OC)cc12)c1ncc(-c2cc3ccccc3nc2OC)[nH]1` with Cytochrome P450 2C9 (Homo sapiens, UniProt P11712) and state it.
5.80

Recall the recorded pIC50 for `O=C(Cn1c(CCc2cccc(F)c2F)nc(=O)c2cccnc21)N(Cc1ccc(-c2ccc(C(F)(F)F)cc2)cc1)C1CCN(c2ccncn2)CC1` with Cytochrome P450 2C9 (Homo sapiens, UniProt P11712) and state it.
7.00

Recall the recorded pIC50 for `Cc1cc(C(N)=O)nn1-c1cccc(-c2ccc(C(F)(F)F)cc2C(F)(F)F)c1` with Cytochrome P450 2C9 (Homo sapiens, UniProt P11712) and state it.
5.05

Recall the recorded pIC50 for O=C(O)CCC1(c2ccncc2)CCCN(C(=O)Nc2ccc(Cl)cc2)C1 (stereo not drawn) with Cytochrome P450 2C9 (Homo sapiens, UniProt P11712) and state it.
5.00

Recall the recorded pIC50 for `Cc1cccc(-c2[nH]c(NCc3cccc(F)c3F)nc2-c2ccc3[nH]ncc3c2)n1` with Cytochrome P450 2C9 (Homo sapiens, UniProt P11712) and state it.
6.22

Recall the recorded pIC50 for `O=C(Nc1nc2cccc(C3CCC4(CC3)CCN(C(=O)[C@@H]3CC3(F)F)CC4)n2n1)C1CC1` with Cytochrome P450 2C9 (Homo sapiens, UniProt P11712) and state it.
4.33

Recall the recorded pIC50 for `CCc1ncc(-c2cc(C)no2)c(C2CCN(CC(=O)N3CCOCC3)CC2)n1` with Cytochrome P450 2C9 (Homo sapiens, UniProt P11712) and state it.
3.22

Recall the recorded pIC50 for `Cc1ncn(-c2cc(Cl)c(C(=O)NC[C@@H](c3cccc(F)c3)c3nc4ccc(Cl)cc4[nH]3)c(Cl)c2)n1` with Cytochrome P450 2C9 (Homo sapiens, UniProt P11712) and state it.
4.70

Recall the recorded pIC50 for `CC(=O)N[C@@H](C)/C=C/c1ccc(Oc2ccc3nc(C(C)C)sc3c2Cl)nc1` with Cytochrome P450 2C9 (Homo sapiens, UniProt P11712) and state it.
4.89

Recall the recorded pIC50 for `Cc1ccc2c(N3CCN(CCc4ccc(F)c(-c5cncnc5)c4)CC3)cccc2n1` with Cytochrome P450 2C9 (Homo sapiens, UniProt P11712) and state it.
5.00

Recall the recorded pIC50 for `COc1cc2c(cc1-c1c(C)noc1C)ncc1[nH]c(=O)n(-c3ccccc3OC(F)(F)F)c12` with Cytochrome P450 2C9 (Homo sapiens, UniProt P11712) and state it.
5.64

Recall the recorded pIC50 for `OCc1cccc(-c2ccc3nc(-c4ccc(Cl)cc4)cn3c2)c1` with Cytochrome P450 2C9 (Homo sapiens, UniProt P11712) and state it.
5.07

Recall the recorded pIC50 for `O=C(O)c1ccc(-n2cc(C(=O)c3c(Cl)cccc3Cl)c3cccnc32)c(F)c1` with Cytochrome P450 2C9 (Homo sapiens, UniProt P11712) and state it.
4.80

Recall the recorded pIC50 for `c1ccc2oc(-c3csc(C4CCN(Cc5nc6ncccc6[nH]5)CC4)n3)cc2c1` with Cytochrome P450 2C9 (Homo sapiens, UniProt P11712) and state it.
4.82

Recall the recorded pIC50 for `O=C(CCc1cnn2c1ccc1cc(O)ccc12)NC1=C(C(=O)O)CCCC1` with Cytochrome P450 2C9 (Homo sapiens, UniProt P11712) and state it.
4.72

Recall the recorded pIC50 for `O=C(CCc1noc2c1ccc1cc(O)ccc12)NC1=C(C(=O)O)CCCC1` with Cytochrome P450 2C9 (Homo sapiens, UniProt P11712) and state it.
4.92

Recall the recorded pIC50 for `Fc1cc(OC(F)(F)C(F)F)cc([C@@](Cc2ccccc2)(Nc2nc(C(F)(F)F)cs2)c2ccc(Cl)cn2)c1` with Cytochrome P450 2C9 (Homo sapiens, UniProt P11712) and state it.
4.40

Recall the recorded pIC50 for `O=C(O)c1cccc(Cc2cc(Cl)ccc2OCc2ccc(Cl)cc2Cl)n1` with Cytochrome P450 2C9 (Homo sapiens, UniProt P11712) and state it.
5.32

Recall the recorded pIC50 for COC(=O)C1=C(Cn2cnnn2)NC(C)=C(C#N)C1c1ccc(F)cc1Cl (stereo not drawn) with Cytochrome P450 2C9 (Homo sapiens, UniProt P11712) and state it.
5.72
